ASSAYED_SYSTEM: pooled human IgG (human IgG1, 2, 3 and 4)
MEASUREMENT_NAME: Enzyme Activity Endpoint Assay: scIgG (ng/µL)

| PROTEIN | MEASUREMENT_UNITS | NUMERIC_READOUT |
| --- | --- | --- |
| PRT-584 (protein) MANQEIRYSEETPKTITSVWTKGVTPPTNFIYNEDVLHAPYIANQGWYDITKTFNGKDDLLCGAATAGNMLHWWFDQNKEQIERYLKKHPEKQKINFNGEQMFDVKEAIDTKDSQTNSKLFEYFKDKAFPYLSTKHLGVFPDHVIDMFINGYRLSLTNHGPTPVKRQTKDPRGGIFDAVFTRGDQSKLLTSRHDFKEKTLNEISDLIKQELTEGKALGLSHTYANVRINHVINLWGADFNAEGNLEAIYVTDSDSNASIGMKKYYVGVNSAGKVAISAKEIEGDNIGAQVLGLFTLSTGQDIWEQTNLEHHHHHH | ng/µL | 285 |
| PRT-399 (protein) MVTSVWTKGVTPPADFTQGEDVFHAPYVANQGWYDITKTFNGKDDLLCGAATAGNMLHWWFDQNKEYIEAYLKKHPEKQKIMFGDQELLDVRKAINTKGSQKNSELFNYFRDKAFPNLSARRLGVMPDLVLDMFINGYYLNVTKTQTTDVNRTYQEKDKRGGIFDAVFTRGDQSKLLTSRHDFKEKGLKEISDLIKQELTEGKALGLSHTYANVRINHVINLWGADFDSDGNLKAIYVTDSDSNASIGMKKYVVGVNSAGKVAISAKEIKEDNIGAQVLGLFTLSTGQDIWNQTN | ng/µL | 0 |
| PRT-463 (protein) MVTSVWTKGVTPPANFRKIVDGNIAYYHAPYVANQGWYDITKTFNGKDDLLCGAATAGNMLHWWFDQNKDQIERYLKEHPEKQKINFNGEQMFDVKEAIDTKDSQTDSKLFEYFKEKAFPYLSTKHLGVFPDHVLDMFINGYRLSLTNHGPTPVKEGSKDPRGGIFDAVFTRGDQSKLLTSRHDLKNKTLKEISDLIKQELTEGKALGLSHTYANVRINHVINLWGADFDSEGNLKAIYVTDSDSNASIGMKKYFVGVNSAGKVAISAKEIKEDNIGAQVLGLFTLSTGQDIWNQTNLEHHHHHH | ng/µL | 0 |
| PRT-685 (protein) MQITSVWTKGVTPLTPEQFRNNNEDVIHAPYLPNQGWYDITKAFNGKDNLLCGAATAGNMLHWWFDQNKEEIEAYLKKYPEKQKIIFNNQELFDLRKAINTKDSQTNSALFNYFRDKAFPNLSARQLGVMPDLVLDMFINGYYLNVFKTQSTDVNRPYQDKDKRGGIFDHVFNRGDQTTLLTARHDLKNKTLNDISTIIKQELSSGKALALSHTYANVSISHVINLWGADFNAEGNLEAIYVTDSDANASIGMKKYYVGRNAHGHVAISAKKIEGENIGAQVLGLFTLSSGKEIWQKLSLEHHHHHH | ng/µL | 0 |
| PRT-581 (protein) MANQEIRYSKATPKTITSVWTKGVTPPENFIYNEDVLHAPYLANQGWYDITKTFNGKDDLLCGAATAGNMLHWWFDQNKEQIERYLKEHPEKQKINFNGEQMFDVKEAIDTKDSQTNSKLFEYFKDKAFPYLSTKHLGVFPDHVIDMFINGYRLSLTNHGPTPVKEQTKDPRGGIFDAVFTRGDQSKLLTSRHDFKEKTLNEISDLIKQELTEGKALGLSHTYANVRINHVINLWGADFDAEGNLEAIYVTDSDSNASIGMKKYYVGVNSAGKVAISAKEIEGDNIGAQVLGLFTLSTGKDIWEQTNLEHHHHHH | ng/µL | 0 |
| PRT-590 (protein) MANQEIRYSEETPSTVTSVWTKGVTPPTDFIQNEDVLHAPYIANQGWYDITKTFNGKDDLLCGAATAGNMLHWWFDQNKEQIENYLKKHPEKQKINFNGEQMFDVKEAIDTKDSQTDSALFEYFKDKAFPYLSTKHLGVFPDHVIDMFINGYRLSLTNHGPTPVKRGTKDPRGGIFDAVFTRGDQSKLLTSRHDFKEKTLNEISDLIKQELTEGKALGLSHTYANVRINHVINLWGADFNAEGNLEAIYVTDSDSNASIGMKKYYVGVNSAGKVAISAKEIEGDNIGAQVLGLFTLSTGQDIWNQTNLEHHHHHH | ng/µL | 0 |
| PRT-263 (protein) MVTSVWTKGVTPPTNFTYGEDVLHAPYVANQGWYDITKLFNGKDNLLCGAATAGNMLHWWFDQNKEQIENYLKKHPEKQKINFNGEQLFDVKEAIDTKDSQLDSKLFEYFLEKAFPNLSTKHLGVFPDHVIDMFINGYRLSLLNHGPTPVKRGSKDKRGGIFDAVFTRGVQSKLLTNRHDFKEKTLKEISDLIKQELTEGKALGISHTYANGRINHVINLWGADFDAEGNLEAIAVTDSDTNASIGMKKYFVGVNSSGKVAISAKEIEEDNIGAQVLGLFTLSTGQDIWNQTN | ng/µL | 0 |
| PRT-442 (protein) MSQTEDSESLQRLRDIEDFQAEKKKQNVVYTKWLDGVDVKDHDFRKIVDGNIAYYATPLLNGRGFYDINKDFNRDNDKCAAAVAANMFHYWLDRNRDNVDRFLRQNPEKHGIIELPDGQLKLSDFLNTYESDDGYRDKSKLFDFISNNFNGPVWTDKLLDNYINGYAYNYKYGRTIEDPTKNTSKINFFKEVFNEKILTNNHSIRNQNEFSVLLSEALYTGKAIGLSYGPAGLRHSLGHIISVWGADLDADGNVVAIYVTDSDDKKLTIGDERVGLKRYKISTDDEGRLRLTAYEETHNTGGQIRGLWTLDTGKQAWADYFDKTEQTGTDQAEQ | ng/µL | 381 |
